Every entry's value here was drawn from patent US11357779B2.

# Protocol Description: Plasma concentration versus time of Compound I and metabolite Compound III in patients dosed QD or BID with Form B of Compound II plus fulvestrant
# Type: in vivo, human
# Experimental Parameters: human, plasma, oral, 650 mg, Cohort 5, 650 mg QD of Form B, Day 8; read-out: Trough Compound III Concentration, Max
# From the text: Patients were enrolled into 1 of 2 parallel, independently operating, dose-escalation dosing cohorts with Form B of Compound II administered continuously either once daily (QD) or twice daily (BID) with food with fixed-dose fulvestrant (intramuscularly every 14 days for the first three injections and then every 28 days). Pre- or perimenopausal patients also received goserelin for the duration of study treatment. […]
Assay Metric: concentration at 8 day (ng/mL)
A number alone suffices; assume ng/mL.

Requested read-out: concentration at 8 day. Entry: O=C1NCC2(CCCCC2)n2c1cc1cnc(Nc3ccc(N4CCNCC4)cn3)nc12
4.96
